Data credit: the supplement of paper PMC4862054

Parameter normalised viability: see the listing below.
Test system: MFM-223
Run description: normalised viability (% of control), CellTiter-Blue; higher = more viable cells (about 100 = DMSO control)
Cond: 10000 nM; incubation time: 72 h
Report only the number, with the unit % understood.

Here is how some molecules turned out for normalised viability.
>>> observed_result("C1CN1c1nc(N2CC2)nc(N2CC2)n1")
64.8
>>> observed_result("O=C(O)C1(C(=O)O)CCC1.[NH2-].[NH2-].[Pt+2]")
48.7

get_value(item= CCc1cncnc1N1CCN(Cc2nc3ccc(C(F)(F)F)cc3[nH]2)CC1 , readout=normalised viability) returns 82.7

====

System: SK-BR-3
Cond: 72 h
So basically, if EC50, CellTiter-Glo comes in under 900 nM it's TRUE, and if it's 900 nM or more it's FALSE.

Solved entries:
>>> class_name("Nc1nc2[nH]cc(CCc3ccc(C(=O)N[C@@H](CCC(=O)O)C(=O)O)cc3)c2c(=O)[nH]1")
"TRUE"
>>> class_name("O=C(Cc1ccc(-c2ccc(OCCN3CCOCC3)cc2)cn1)NCc1ccccc1")
"TRUE"
>>> class_name("COc1cc2c(NC3CCN(C(C)C)CC3)nc(C3CCCCC3)nc2cc1OCCCN1CCCC1")
"FALSE"
>>> class_name("C=CC(=O)Nc1cc2c(Nc3ccc(F)c(Cl)c3)ncnc2cc1OCCCN1CCOCC1")
"TRUE"

Now for another entry.
Confirm or reject: EC50, CellTiter-Glo of CC[C@H](C)C(=O)O[C@H]1C[C@H](O)C=C2C=C[C@H](C)[C@H](CC[C@@H](O)C[C@@H](O)CC(=O)O)[C@H]21 lies strictly below 900 nM
FALSE

====

Parameter normalised response: see the listing below.
Test system: MDA-MB-453
Run description: normalised response (% of control), CellTox Green; higher = less cell death (100 = DMSO, 0 = benzethonium chloride kill control)
Cond: incubation time: 72 h
Report only the number, with the unit % understood.

Here is how some compounds turned out for normalised response.
>>> observed_result("CCN(CC)CCCC(C)Nc1c2ccc(Cl)cc2nc2ccc(OC)cc12 (configuration not stated) [Mepacrine] (500 nM)")
104
>>> observed_result("CC(=O)Nc1cccc(-n2c(=O)n(C3CC3)c(=O)c3c(Nc4ccc(I)cc4F)n(C)c(=O)c(C)c32)c1 [Trametinib] (250 nM)")
105
>>> observed_result("COc1cc2nccc(Oc3ccc(NC(=O)Nc4cc(C)on4)c(Cl)c3)c2cc1OC [Tivozanib] (100 nM)")
97.2
>>> observed_result("C[C@H]1C[C@@H]2[C@H]([C@@H](O)C[C@@]3(C)[C@H]2CC[C@]3(O)C(=O)CO)[C@@]2(C)C=CC(=O)C=C12 [Methylprednisolone] (10000 nM)")
101
>>> observed_result("Nc1nc(F)nc2c1ncn2[C@@H]1O[C@H](CO)[C@@H](O)[C@@H]1O [Fludarabine] (10000 nM)")
98.5

get_value(item= CC[C@@H]1C(=O)N(C)c2cnc(Nc3ccc(C(=O)NC4CCN(C)CC4)cc3OC)nc2N1C1CCCC1 [BI 2536] (100 nM) , readout=normalised response) returns 103

get_value(item= CCCS(=O)(=O)Nc1ccc(F)c(C(=O)c2c[nH]c3ncc(-c4ccc(Cl)cc4)cc23)c1F [Vemurafenib] (1000 nM) , readout=normalised response) returns 104
